- TARGET: UniProtKB P48736
- PROTOCOL DETAILS: Enzyme Assay
Label criterion met when IC50 is strictly below 400 nM; at or above that, label criterion not met.

**Query** Determine if O=C(c1nn([C@H]2CCCN(CCN3CCCC3)C2)c2c1CS(=O)(=O)c1ccccc1-2)N1CCOCC1 shows IC50 strictly lower than 400 nM.
**Result** criterion met

**Query** Determine if CS(=O)(=O)c1ccc(-n2nc(C(=O)N3CCOCC3)c3c2-c2ccccc2S(=O)(=O)C3)cc1 shows IC50 strictly lower than 400 nM.
**Result** criterion not met

**Query** Determine if O=C(c1nn([C@H]2CCCN(C3CCCNC3)C2)c2c1CS(=O)(=O)c1ccccc1-2)N1CCOCC1 (some centres undefined) shows IC50 strictly lower than 400 nM.
**Result** criterion met

**Query** Determine if O=C(c1nn(C2CCN(CCN3CC[C@@H](F)C3)C2)c2c1CS(=O)(=O)c1ccccc1-2)N1CCOCC1 (some centres undefined) shows IC50 strictly lower than 400 nM.
**Result** criterion met

**Query** Determine if O=C(c1nn(C2CCN(CCN3CCOCC3)CC2)c2c1CS(=O)(=O)c1ccccc1-2)N1CCOCC1 shows IC50 strictly lower than 400 nM.
**Result** criterion met

**Query** Determine if O=C(c1nn([C@H]2CCCN(c3ccncc3)C2)c2c1CS(=O)(=O)c1ccccc1-2)N1CCOCC1 shows IC50 strictly lower than 400 nM.
**Result** criterion met

**Query** Determine if CC(C)(CN1CCOCC1)c1ccc(-n2nc(C(=O)N3CCOCC3)c3c2-c2ccccc2S(=O)(=O)C3)cc1 shows IC50 strictly lower than 400 nM.
**Result** criterion met

**Query** Determine if COc1ccc(C(=O)Cn2nc(C(=O)N3CCOCC3)c3c2-c2ccccc2S(=O)(=O)C3)cc1 shows IC50 strictly lower than 400 nM.
**Result** criterion not met

**Query** Determine if O=C(c1nn(-c2cccnc2)c2c1CS(=O)(=O)c1ccccc1-2)N1CCOCC1 shows IC50 strictly lower than 400 nM.
**Result** criterion not met

**Query** Determine if O=C(c1nn(C2CCCN(CCn3cccn3)C2)c2c1CS(=O)(=O)c1ccccc1-2)N1CCOCC1 (centres undefined) shows IC50 strictly lower than 400 nM.
**Result** criterion met

**Query** Determine if O=C(c1nn(-c2ccccc2Cl)c2c1CS(=O)(=O)c1ccccc1-2)N1CCOCC1 shows IC50 strictly lower than 400 nM.
**Result** criterion not met

**Query** Determine if COc1ccc2c(c1)S(=O)(=O)Cc1c(C(=O)N3CCOCC3)nn([C@H]3CCCN(CCC4CCOCC4)C3)c1-2 shows IC50 strictly lower than 400 nM.
**Result** criterion met

**Query** Determine if O=C(c1nn(C2CCCN(CCO)C2)c2c1CS(=O)(=O)c1ccccc1-2)N1CCOCC1 (centres undefined) shows IC50 strictly lower than 400 nM.
**Result** criterion not met

**Query** Determine if O=C(c1nn(-c2ccc(-c3ccccc3)cc2)c2c1CS(=O)(=O)c1ccccc1-2)N1CCOCC1 shows IC50 strictly lower than 400 nM.
**Result** criterion not met

**Query** Determine if O=C(c1nn(-c2cccc(CO)c2)c2c1CS(=O)(=O)c1ccccc1-2)N1CCOCC1 shows IC50 strictly lower than 400 nM.
**Result** criterion not met

**Query** Determine if O=C(CC1CCOCC1)N1CCC(n2nc(C(=O)N3CCOCC3)c3c2-c2ccccc2S(=O)(=O)C3)C1 (centres undefined) shows IC50 strictly lower than 400 nM.
**Result** criterion not met

**Query** Determine if O=C(c1nn(C2CCCN(CCC3CCOCC3)C2)c2c1CS(=O)(=O)c1c(F)cccc1-2)N1CCOCC1 (centres undefined) shows IC50 strictly lower than 400 nM.
**Result** criterion met

**Query** Determine if CC1(C)CN(CCN2CCC[C@H](n3nc(C(=O)N4CCOCC4)c4c3-c3ccccc3S(=O)(=O)C4)C2)CCO1 shows IC50 strictly lower than 400 nM.
**Result** criterion met

**Query** Determine if O=C(c1nn(C2CCN(CCN3CCOCC3)C2)c2c1CS(=O)(=O)c1ccccc1-2)N1CCOCC1 (centres undefined) shows IC50 strictly lower than 400 nM.
**Result** criterion met

**Query** Determine if CS(=O)(=O)Nc1ccc2c(c1)-c1c(c(C(=O)N3CCOCC3)nn1-c1ccccc1)CS2(=O)=O shows IC50 strictly lower than 400 nM.
**Result** criterion not met

**Query** Determine if COCCN(CCOC)CCN1CCC[C@H](n2nc(C(=O)N3CCOCC3)c3c2-c2ccccc2S(=O)(=O)C3)C1 shows IC50 strictly lower than 400 nM.
**Result** criterion met

**Query** Determine if O=C(c1nn(-c2ccc(CN3CCCC(F)(F)C3)cc2)c2c1CS(=O)(=O)c1ccccc1-2)N1CCOCC1 shows IC50 strictly lower than 400 nM.
**Result** criterion met

**Query** Determine if CN(C)S(=O)(=O)c1cccc(-n2nc(C(=O)N3CCOCC3)c3c2-c2ccccc2S(=O)(=O)C3)c1 shows IC50 strictly lower than 400 nM.
**Result** criterion not met

**Query** Determine if CN(C)CC(C)(C)c1ccc(-n2nc(C(=O)N3CCOCC3)c3c2-c2ccccc2S(=O)(=O)C3)cc1 shows IC50 strictly lower than 400 nM.
**Result** criterion met

**Query** Determine if CC(C)(C)C1CCC(n2nc(C(=O)N3CCOCC3)c3c2-c2ccccc2S(=O)(=O)C3)CC1 (centres undefined) shows IC50 strictly lower than 400 nM.
**Result** criterion not met

**Query** Determine if Cc1nnc(-c2cccc(-n3nc(C(=O)N4CCOCC4)c4c3-c3ccccc3S(=O)(=O)C4)c2)s1 shows IC50 strictly lower than 400 nM.
**Result** criterion not met

**Query** Determine if COc1ccc2c(c1)S(=O)(=O)Cc1c(C(=O)N3CCOCC3)nn([C@H]3CCCN(CCN4CCC(F)CC4)C3)c1-2 shows IC50 strictly lower than 400 nM.
**Result** criterion met

**Query** Determine if CC1CN(Cc2ccc(-n3nc(C(=O)N4CCOCC4)c4c3-c3ccccc3S(=O)(=O)C4)cc2)CCO1 (centres undefined) shows IC50 strictly lower than 400 nM.
**Result** criterion met

**Query** Determine if O=C(c1nn([C@H]2CCCN(CCC3CCOCC3)C2)c2c1CS(=O)(=O)c1ccccc1-2)N1CCOCC1 shows IC50 strictly lower than 400 nM.
**Result** criterion met

**Query** Determine if Cn1nc(C(=O)N2CCOCC2)c2c1-c1cccc(F)c1S(=O)(=O)C2 shows IC50 strictly lower than 400 nM.
**Result** criterion not met

**Query** Determine if CC(C)(C)OC(=O)N1CCC(n2nc(C(=O)N3CCOCC3)c3c2-c2ccccc2S(=O)(=O)C3)C1 (centres undefined) shows IC50 strictly lower than 400 nM.
**Result** criterion not met

**Query** Determine if O=C(c1nn([C@H]2CCN(C3CCOCC3)C2)c2c1CS(=O)(=O)c1ccccc1-2)N1CCOCC1 shows IC50 strictly lower than 400 nM.
**Result** criterion not met

**Query** Determine if CN(C)Cc1cccc(-n2nc(C(=O)N3CCOCC3)c3c2-c2ccccc2S(=O)(=O)C3)c1 shows IC50 strictly lower than 400 nM.
**Result** criterion not met

Every entry's value here was drawn from the Kinase Knowledgebase extract (Sharma et al. 2016).
